Read-out: HMG-CoA synthase (HMGCS2), HMGCS2 (gene 3158)
Assay: CLD_HMGCS2_6hr: CellzDirect (CLD) Gene Expression Assay for HMG-CoA synthase (HMGCS2) at 6 hours (AID 2283682);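 further: actives raise HMGCS2 transcript above the 0.2% DMSO vehicle baseline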
Records with an inconclusive call do not appear. Calls of active or inactive are those of the source. How the source made its calls: active means hit-call score of the fitted dose curve at least 0.9, where 1 is the maximum; inconclusive means response in the unintended direction; inactive means score below 0.9.
Measured parameter: outcome

Compound	Test value
CCOc1nc(NC)nc(NC(=O)NS(=O)(=O)c2ccccc2C(=O)OC)n1	inactive
O=C(O)CCCOc1ccc(Cl)cc1Cl	inactive
CC[C@H](C)[C@H]1O[C@]2(C=C[C@@H]1C)C[C@@H]1C[C@@H](C/C=C(\C)[C@@H](O[C@H]3C[C@H](OC)[C@@H](O[C@H]4C[C@H](OC)[C@@H](O)[C@H](C)O4)[C@H](C)O3)[C@@H](C)/C=C/C=C3\CO[C@@H]4[C@H](O)C(C)=C[C@@H](C(=O)O1)[C@]34O)O2 (tested in a mixture with another compound)	inactive

###

Read-out: Potassium channel subfamily K member 1 (KCNK1), KCNK1 (gene 3775)
Assay: LTEA_HepaRG_KCNK1: Life Technologies and Expression Analysis (LTEA) Assay for Potassium channel subfamily K member 1 (KCNK1) using HepaRG (AID 2283511)
Details: mRNA level, 48 h; actives raise or lower the signal
Activity calls are given as the source filed them. How the source made its calls: active means hit-call score of the fitted dose curve at least 0.9, where 1 is the maximum; inactive means score below 0.9.
Classes used: y for active, n for inactive

> print(dat)
                                    molecule  category
 1                CNC(=O)Oc1cccc(N=CN(C)C)c1         n
 2  CCCN(CCC)c1c([N+](=O)[O-])cc(C(F)(F)F)cc1[N+](=O)[O-]         n
 3  CCOC1Oc2ccc(OS(C)(=O)=O)cc2C1(C)C (stereo unspecified)         n
 4          Cc1[nH]c(=O)n(C(C)(C)C)c(=O)c1Cl         n
 5        COP(=S)(OC)Oc1ccc([N+](=O)[O-])cc1         n
 6                      CNC(=O)CSP(=S)(OC)OC         n
 7  CC1(c2ccc(Oc3ccccc3)cc2)OC(=O)N(Nc2ccccc2)C1=O (stereo unspecified)         y
 8  CCC(C)Nc1c([N+](=O)[O-])cc(C(C)(C)C)cc1[N+](=O)[O-] (stereo unspecified)         n
 9           O=C1c2ccccc2C(=O)N1SC(Cl)(Cl)Cl         n
10                              OCCOc1ccccc1         n
11                          CN1CSC(=S)N(C)C1         n
12    O=[N+]([O-])c1c(Cl)c(Cl)c(Cl)c(Cl)c1Cl         n
13  O=C(NC(=O)c1c(F)cccc1F)Nc1ccc(OC(F)(F)C(F)OC(F)(F)F)c(Cl)c1 (stereo unspecified)         n
14               COP(=S)(OC)Oc1ccc(SC)c(C)c1         n
15               CNC(=O)/C=C(\C)OP(=O)(OC)OC         n
16  CC1(C)C(C=C(Cl)Cl)C1C(=O)OC(C#N)c1ccc(F)c(Oc2ccccc2)c1 (stereo unspecified)         n
17  CCC(C)(C)C(=O)OC1=C(c2ccc(Cl)cc2Cl)C(=O)OC12CCCCC2         n
18  O=C(O)C(F)(F)C(F)(F)C(F)(F)C(F)(F)C(F)(F)C(F)(F)C(F)(F)F         n
19                    Oc1ccc(Cl)cc1Cc1ccccc1         n
20                CCN(CC)C(=O)SCc1ccc(Cl)cc1         n
21  O=S1OCC2C(CO1)C1(Cl)C(Cl)=C(Cl)C2(Cl)C1(Cl)Cl (stereo unspecified)         n
22  C#CCN1C(=O)COc2cc(F)c(N3C(=O)C4=C(CCCC4)C3=O)cc21         n
23  C[C@H]1[C@H](c2ccc(Cl)cc2)SC(=O)N1C(=O)NC1CCCCC1         n
24            N#Cc1c(Cl)c(Cl)c(Cl)c(C#N)c1Cl         n
25  CC(C)(C)C(O)C(Oc1ccc(Cl)cc1)n1cncn1 (stereo unspecified)         n
26  CCc1ccc(C(=O)NN(C(=O)c2cc(C)cc(C)c2)C(C)(C)C)cc1         n
